Counter-ions that a name gives are not always drawn.
Target or system KPC-2 (Klebsiella pneumoniae): recorded IC50 listed per item.

// IC50 value for O=C1N2C[C@@H](CC[C@H]2Cl)N1OS(=O)(=O)[O-].[Na+] [Example 12, sulfate] : > 0.01 µM

// IC50 value for O=C1N2C[C@@H](CC[C@H]2C(F)(F)F)N1OS(=O)(=O)O [Example 1, sulfate] : < 0.01 µM

// IC50 value for O=C1N2C[C@@H](CC[C@H]2C(F)F)N1OS(=O)(=O)O [Example 2, sulfate] : < 0.01 µM

// IC50 value for O=C1N2C[C@@H](CC[C@H]2C(F)(F)c2nccs2)N1OS(=O)(=O)[O-].[Na+] [Example 9, sulphate] : < 0.01 µM

// IC50 value for CC(F)(F)[C@@H]1CC[C@@H]2CN1C(=O)N2OS(=O)(=O)[O-].[Na+] [Example 5, sulphate] : > 0.01 µM

// IC50 value for O=C1N2C[C@@H](CC[C@@H]2F)N1OS(=O)(=O)[O-].[Na+] [Example 11, sulfate] : > 0.01 µM

// IC50 value for O=C1N2C[C@@H](CC[C@H]2C(Cl)Cl)N1OS(=O)(=O)O [Example 3, sulfate] : < 0.01 µM

// IC50 value for O=C1N2C[C@@H](CC[C@H]2F)N1OS(=O)(=O)[O-].[Na+] [Example 10, sulfate] : > 0.01 µM

// IC50 value for O=C1N2C[C@@H](CC[C@H]2CF)N1OS(=O)(=O)[O-].[Na+] [Example 4, sulphate] : > 0.01 µM

// IC50 value for O=C1N2C[C@@H](CC[C@H]2COC(F)(F)F)N1OS(=O)(=O)[O-].[Na+] [Example 8, sulphate] : < 0.01 µM

// IC50 value for O=C1N2C[C@@H](CC[C@H]2CCl)N1OS(=O)(=O)[O-].[Na+] [Example 6, sulphate] : > 0.01 µM

// IC50 value for O=C1N2C[C@@H](CC[C@H]2SC(F)(F)F)N1OS(=O)(=O)[O-].[Na+] [Example 7, sulphate] : > 0.01 µM

====

Molecular target: AmpC (Enterobacter cloacae)
Sequence (P05364 21-381): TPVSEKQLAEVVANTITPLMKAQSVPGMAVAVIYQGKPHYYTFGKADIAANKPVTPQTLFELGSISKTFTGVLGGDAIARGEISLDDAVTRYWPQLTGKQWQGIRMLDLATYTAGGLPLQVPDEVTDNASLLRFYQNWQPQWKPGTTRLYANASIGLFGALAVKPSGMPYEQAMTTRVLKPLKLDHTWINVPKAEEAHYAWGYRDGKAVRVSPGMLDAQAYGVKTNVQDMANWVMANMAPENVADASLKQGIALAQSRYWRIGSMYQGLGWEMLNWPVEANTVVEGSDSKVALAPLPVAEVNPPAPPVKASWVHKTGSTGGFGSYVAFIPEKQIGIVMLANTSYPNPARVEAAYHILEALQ
Test: biochemical
Structures can show the parent of a compound that is named as a salt.
Parameter measured: IC50

// IC50 value for O=C1N2C[C@@H](CC[C@@H]2F)N1OS(=O)(=O)[O-].[Na+] [Example 11, sulfate] : > 0.06 µM

// IC50 value for O=C1N2C[C@@H](CC[C@H]2F)N1OS(=O)(=O)[O-].[Na+] [Example 10, sulfate] : 0.01 to 0.04 µM

// IC50 value for O=C1N2C[C@@H](CC[C@H]2C(Cl)Cl)N1OS(=O)(=O)O [Example 3, sulfate] : 0.04 to 0.06 µM

// IC50 value for O=C1N2C[C@@H](CC[C@H]2COC(F)(F)F)N1OS(=O)(=O)[O-].[Na+] [Example 8, sulphate] : 0.04 to 0.06 µM

// IC50 value for O=C1N2C[C@@H](CC[C@H]2CCl)N1OS(=O)(=O)[O-].[Na+] [Example 6, sulphate] : 0.01 to 0.04 µM

// IC50 value for CC(F)(F)[C@@H]1CC[C@@H]2CN1C(=O)N2OS(=O)(=O)[O-].[Na+] [Example 5, sulphate] : 0.04 to 0.06 µM

// IC50 value for O=C1N2C[C@@H](CC[C@H]2Cl)N1OS(=O)(=O)[O-].[Na+] [Example 12, sulfate] : < 0.01 µM

// IC50 value for O=C1N2C[C@@H](CC[C@H]2SC(F)(F)F)N1OS(=O)(=O)[O-].[Na+] [Example 7, sulphate] : 0.04 to 0.06 µM

// IC50 value for O=C1N2C[C@@H](CC[C@H]2C(F)(F)c2nccs2)N1OS(=O)(=O)[O-].[Na+] [Example 9, sulphate] : < 0.01 µM

// IC50 value for O=C1N2C[C@@H](CC[C@H]2CF)N1OS(=O)(=O)[O-].[Na+] [Example 4, sulphate] : < 0.01 µM
